- EXPERIMENTAL SYSTEM: T1, SOCS2(L106V)-ElonginB-ElonginC complex (human | , UniProt O14508 32-198; Q15370 1-104; Q15369 17-112, L106V)
- T1 construct: also called SBC L106V; source: E. coli BL21(DE3), co-expressed, purified (as wild-type SBC); not shown: His6, N-terminal, cleaved; copies: + +
- T1 sequence (O14508 32-198 L106V, chain 1 of 3): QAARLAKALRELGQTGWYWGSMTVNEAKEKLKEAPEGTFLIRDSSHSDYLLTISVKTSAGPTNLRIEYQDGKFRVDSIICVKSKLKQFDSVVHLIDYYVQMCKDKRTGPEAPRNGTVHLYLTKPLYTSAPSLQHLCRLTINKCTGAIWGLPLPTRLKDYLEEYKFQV
- T1 sequence (Q15370 1-104, chain 2 of 3): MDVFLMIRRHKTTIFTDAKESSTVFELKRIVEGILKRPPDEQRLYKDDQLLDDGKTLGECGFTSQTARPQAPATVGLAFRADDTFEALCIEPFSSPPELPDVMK
- T1 sequence (Q15369 17-112, chain 3 of 3): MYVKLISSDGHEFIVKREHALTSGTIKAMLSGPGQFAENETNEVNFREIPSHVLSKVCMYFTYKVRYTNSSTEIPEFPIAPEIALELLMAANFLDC
- EXPERIMENTAL PROTOCOL: SPR; biotinylated SBC (wild-type or mutant) immobilised, peptide injected at 0.08-60 μM; 20 mM HEPES pH 7.5, 150 mM NaCl, 1 mM TCEP, 0.005% Tween20, 10 °C; steady-state affinity, 1:1 model
- MEASUREMENT CONTEXT: both partners purified
Where no end group is shown, it is not given here. [ ]: non-standard residue; d: D form. pY = N[C@@H](Cc1ccc(OP(=O)(O)O)cc1)C(=O)O
PROPERTY NAME: Kd (µM)
Dear colleague, please return just the value in µM, with no unit written.

# query: Kd of entry NIDF[pY]AQVSDI-NH2 (growth hormone receptor (GHR), 11-residue peptide around pY487; source: synthetic peptide (solid-phase, Fmoc, Rink amide resin), HPLC purified) [GHR_pY487 phosphopeptide (growth hormone receptor)]
8.9

Hello, the source for this data is paper PMC6557900, in case you need it.
